In this section, each of the compounds is paired with its reported cell viability.
# Tested on: HCI16 (cells of a triple-negative basal-like breast cancer xenograft);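 further: PDX cells carrying CMV promoter-driven luciferase, viability read as total photon flux per second by IVIS imaging following D-luciferin, vehicle control 0.1% DMSO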
# Experimental Details: cell viability (% of vehicle); higher = less cytotoxic
# Study Conditions: 10 µM; 72 h

# Compound, cell viability
measured = [
    ("CC(C)(C)c1cc(NC(=O)Nc2ccc(-c3cn4c(n3)sc3cc(OCCN5CCOCC5)ccc34)cc2)no1", 127),
    ("Cc1ncc(CO)c(CO)c1O.Cl [Pyridoxine HCl]", 107),
    ("O=C(O)c1cccnc1Nc1cccc(C(F)(F)F)c1", 130),
    ("N[C@@H](Cc1cc(I)c(Oc2cc(I)c(O)c(I)c2)c(I)c1)C(=O)O", 136),
    ("Cc1ccc(C(=O)C(C)CN2CCCCC2)cc1.Cl (centres undefined) [Tolperisone HCl]", 109),
    ("CC(=O)N1CCN(c2ccc(OCC3COC(Cn4ccnc4)(c4ccc(Cl)cc4Cl)O3)cc2)CC1 (single isomer, unassigned; (+)) [(+)-Ketoconazole]", 103),
    ("C=C1C(=CC=C2CCCC3(C)C2CCC3C(C)C=CC(C)C(C)C)CC(O)CC1O (centres undefined)", 106),
    ("O=C(O)CC(O)CC(O)C=Cc1c(C2CC2)nc2ccccc2c1-c1ccc(F)cc1 (centres undefined)", 171),
    ("N=C(N)NCCCC[C@@H]1NC(=O)CCSSC[C@@H](C(N)=O)NC(=O)[C@@H]2CCCN2C(=O)[C@H](Cc2c[nH]c3ccccc23)NC(=O)[C@H](CC(=O)O)NC(=O)CNC1=O [Eptifibatide]", 194),
    ("O=C1C(CCC(O)c2ccc(F)cc2)C(c2ccc(O)cc2)N1c1ccc(F)cc1 (centres undefined)", 97.3),
    ("CC(=O)O[C@H]1Cc2ccccc2N(C(N)=O)c2ccccc21 [Eslicarbazepine acetate]", 106),
    ("CC(N)(Cc1ccc(O)c(O)c1)C(=O)O (centres undefined)", 127),
    ("CN1C(C(=O)Nc2ccccn2)=C(O)c2ccccc2S1(=O)=O", 90.5),
    ("CCCCc1ncc(C=C(Cc2cccs2)C(=O)O)n1Cc1ccc(C(=O)O)cc1.CS(=O)(=O)O [Eprosartan Mesylate]", 134),
    ("COc1ccc(C2CNC(=O)C2)cc1OC1CCCC1 (centres undefined) [Rolipram]", 112),
    ("CCC1OC(=O)C(C)C(OC2CC(C)(OC)C(O)C(C)O2)C(C)C(OC2OC(C)CC(N(C)C)C2O)C(C)(O)CC(C)C(=O)C(C)C(O)C1(C)O (centres undefined)", 113),
    ("CCCCC(=O)N(Cc1ccc(-c2ccccc2-c2nn[nH]n2)cc1)C(C(=O)O)C(C)C (centres undefined)", 119),
    ("CC(C)c1nc(CN(C)C(=O)NC(C(=O)NC(Cc2ccccc2)CC(O)C(Cc2ccccc2)NC(=O)OCc2cncs2)C(C)C)cs1 (centres undefined)", 96.1),
    ("CCCCC(=O)N(Cc1ccc(-c2ccccc2-c2nnn[nH]2)cc1)[C@H](C(=O)O)C(C)C.CCOC(=O)[C@H](C)C[C@@H](Cc1ccc(-c2ccccc2)cc1)NC(=O)CCC(=O)O", 112),
    ("CN1C2=CC(=O)C(=NNC(N)=O)C=C2CC1S(=O)(=O)[O-].[Na+] (centres undefined) [Carbazochrome sodium sulfonate (AC-17)]", 124),
    ("Cc1ccc(NC(=O)c2ccc(CN3CCN(C)CC3)cc2)cc1Nc1nccc(-c2cccnc2)n1 [Imatinib (STI571)]", 98.9),
    ("Cc1c(-c2ccc(O)cc2)n(Cc2ccc(OCCN3CCCCCC3)cc2)c2ccc(O)cc12.Cl [Bazedoxifene HCl]", 114),
    ("CNCC(O)c1cccc(O)c1.Cl (centres undefined) [Phenylephrine HCl]", 97.2),
    ("Cc1c(C(=O)NN2CCCCC2)nn(-c2ccc(Cl)cc2Cl)c1-c1ccc(Cl)cc1", 96.7),
    ("CCCCS(=O)(=O)NC(Cc1ccc(OCCCCC2CCNCC2)cc1)C(=O)O.Cl.O (centres undefined) [Tirofiban hydrochloride monohydrate]", 101),
    ("CCCCCCCCc1ccc(CCC(N)(CO)CO)cc1.Cl", 49.1),
    ("CN1CCC(=C2c3ccccc3C=Cc3ccccc32)CC1.Cl [Cyproheptadine hydrochloride]", 90.1),
    ("CC1CCc2c(N3CCC(O)CC3)c(F)cc3c(=O)c(C(=O)O)cn1c23 (centres undefined)", 120),
    ("O=C(O)CCC(=O)O.O=C(OC1CN2CCC1CC2)N1CCc2ccccc2C1c1ccccc1 (centres undefined) [Solifenacin succinate]", 104),
]
